- Tested On: T1, GFP-9S library array, motif 4 ND N98F;D124H (synthetic construct, N98F;D124H)
- T1 chain: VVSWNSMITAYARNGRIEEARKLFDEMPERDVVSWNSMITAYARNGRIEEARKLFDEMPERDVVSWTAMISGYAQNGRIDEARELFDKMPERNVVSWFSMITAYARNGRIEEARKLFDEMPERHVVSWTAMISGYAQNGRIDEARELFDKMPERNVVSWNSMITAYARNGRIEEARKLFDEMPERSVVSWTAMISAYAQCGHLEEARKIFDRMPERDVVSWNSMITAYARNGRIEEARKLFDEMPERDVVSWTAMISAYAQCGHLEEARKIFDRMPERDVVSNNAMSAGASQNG
- Test Details: high-throughput RNA pulldown from lysate on Ni-NTA beads; HRP: 50 mM Tris pH 8, 150 mM NaCl, 1 mM beta-mercaptoethanol, 50 ug/ml BSA, 3 ug/ml yeast RNA, 0.5% heparin; ITC and FP: Tris pH 8, 200 mM KCl, 5% glycerol; MST: 50 mM Tris pH 8, 200 mM NaCl, 1 mM DTT, BSA, heparin, 0.05% Tween 20
- Reported Conditions: tags: N-terminal His-eGFP; label: 5' Cy5
pKd: −log10 of the molar value.
Measure Name: pKd

>  <Binder>
AUUACACGUGA (ssRNA) [Cy5-rpoA]

>  <Observed Result>
7.13

$$$$
>  <Binder>
AUUAGACGUGA (ssRNA) [Cy5-rpoA-G]

>  <Observed Result>
7.07

$$$$
